# Tested on: T1, Peptide-biotin
# T1 construct: also called antigen
# Assay overview: SPR Biacore 8K affinity ranking; antibody Fc-captured, Peptide-biotin analyte, 1:1 fit
Could you please mark 1 for values of kon below 300000 M⁻¹ s⁻¹ and 0 for values at or above it?

Does this binder meet the criterion kon < 300000 M⁻¹ s⁻¹? humanized anti-TRPM4 antibody clone A5 (VH1 + VL4) (antibody, V domains shown, Full-length IgG, IgG1 heavy chain; also called VH1 + VL4 (A5)) VH: QVQLQESGPGLVKPSQTLSLTCTVSGYSITSDYAWNWIRQHPGKGLEWIGYLSYSGVTSYNPSLKGRVTISVDTSKNQFSLKLSSVTAADTAVYYCARKGTYYRYEGSYWYFDVWGQGTTVTVSS VL: DIQMTQSPSSLSASVGDRVTITCHANQNIDVWLSWYQQKPGNAPKLLIYKTSNLHTGVPSRFSGSGSGTDFTLTISSLQPEDIATYYCQQGQSYPLTFGGGTKLEIKR
1

// next record humanized anti-TRPM4 antibody VH4 + VL4 (antibody, V domains shown, Full-length IgG) VH: QVQLQESGPGLVKPSQTLSLTCTVSGYSITSDYAWNWIRQHPGKGLQWMGYLSYSGVTSYNPSLKGRITISRDTSKNQFFLKLSSVTAADTAVYYCARKGTYYRYEGSYWYFDVWGQGTTVTVSS VL: DIQMTQSPSSLSASVGDRVTITCHANQNIDVWLSWYQQKPGNAPKLLIYKTSNLHTGVPSRFSGSGSGTDFTLTISSLQPEDIATYYCQQGQSYPLTFGGGTKLEIKR
0

// next record humanized anti-TRPM4 antibody clone A2 (VH1 + VL1) (antibody, human IgG1, kappa, V domains shown, also called VH1 + VL1 (A2)) VH: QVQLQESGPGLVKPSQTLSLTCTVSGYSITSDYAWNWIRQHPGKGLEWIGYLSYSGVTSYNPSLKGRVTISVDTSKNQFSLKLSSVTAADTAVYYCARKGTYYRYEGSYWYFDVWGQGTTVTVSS VL: DIQMTQSPSSLSASVGDRVTITCHANQNIDVWLSWYQQKPGKAPKLLIYKTSNLHTGVPSRFSGSGSGTDFTFTISSLQPEDIATYYCQQGQSYPLTFGGGTKLEIKR
1

// next record humanized anti-TRPM4 antibody VH3 + VL1 (antibody, V domains shown, Full-length IgG) VH: QVQLQESGPGLVKPSQTLSLTCTVSGYSITSDYAWNWIRQHPGKGLQWMGYLSYSGVTSYNPSLKGRITISRDTSKNQFSLKLSSVTAADTAVYYCARKGTYYRYEGSYWYFDVWGQGTTVTVSS VL: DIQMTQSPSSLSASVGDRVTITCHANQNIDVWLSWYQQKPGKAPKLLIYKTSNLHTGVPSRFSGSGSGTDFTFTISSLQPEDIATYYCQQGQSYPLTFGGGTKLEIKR
0

// next record humanized anti-TRPM4 antibody VH2 + VL4 (antibody, V domains shown, Full-length IgG) VH: QVQLQESGPGLVKPSQTLSLTCTVSGYSITSDYAWNWIRQHPGKGLEWMGYLSYSGVTSYNPSLKGRVTISRDTSKNQFSLKLSSVTAADTAVYYCARKGTYYRYEGSYWYFDVWGQGTTVTVSS VL: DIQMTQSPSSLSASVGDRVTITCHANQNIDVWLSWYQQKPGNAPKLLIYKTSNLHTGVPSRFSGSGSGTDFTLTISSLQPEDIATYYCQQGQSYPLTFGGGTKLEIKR
1

// next record humanized anti-TRPM4 antibody VH3 + VL3 (antibody, V domains shown, Full-length IgG) VH: QVQLQESGPGLVKPSQTLSLTCTVSGYSITSDYAWNWIRQHPGKGLQWMGYLSYSGVTSYNPSLKGRITISRDTSKNQFSLKLSSVTAADTAVYYCARKGTYYRYEGSYWYFDVWGQGTTVTVSS VL: DIQMTQSPSSLSASVGDRVTITCHANQNIDVWLSWYQQKPGNAPKLLIYKTSNLHTGVPSRFSGSGSGTDFTFTISSLQPEDIATYYCQQGQSYPLTFGGGTKLEIKR
0

// next record humanized anti-TRPM4 antibody VH4 + VL3 (antibody, V domains shown, Full-length IgG) VH: QVQLQESGPGLVKPSQTLSLTCTVSGYSITSDYAWNWIRQHPGKGLQWMGYLSYSGVTSYNPSLKGRITISRDTSKNQFFLKLSSVTAADTAVYYCARKGTYYRYEGSYWYFDVWGQGTTVTVSS VL: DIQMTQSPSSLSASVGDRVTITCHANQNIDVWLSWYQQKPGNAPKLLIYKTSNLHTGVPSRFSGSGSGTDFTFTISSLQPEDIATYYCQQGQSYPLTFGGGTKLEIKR
0
